Entries and their inhibition at 0.3 µM values follow.
Target: Type I 5α-reductase (Homo sapiens, UniProt P18405)
Construct: Scalp punch biopsies from graft recipient sites were obtained; from tissue; host or cells: human scalp skin (punch biopsies from hair transplant procedures); 100,000 x g pellet of the homogenate
Sequence (P18405 whole entry): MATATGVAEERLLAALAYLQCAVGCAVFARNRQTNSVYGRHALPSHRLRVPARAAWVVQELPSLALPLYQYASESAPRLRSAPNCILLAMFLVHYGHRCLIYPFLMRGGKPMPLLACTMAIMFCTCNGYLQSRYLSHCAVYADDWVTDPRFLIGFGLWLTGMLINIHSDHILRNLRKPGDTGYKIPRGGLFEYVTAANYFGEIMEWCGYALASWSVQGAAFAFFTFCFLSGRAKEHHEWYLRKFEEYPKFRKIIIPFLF
Test: Human Type I steroid 5α-reductase homogenate assay (conversion of [3H]-testosterone to [3H]-DHT and other 5α-reduced metabolites)
Type: biochemical
Details: 0.3 µM concentration of compound, compared to control reaction mixtures; read-out: percent inhibition of Type I 5AR
Experimental Endpoint: inhibition at 0.3 µM (%)

Cc1cccc2sc(Sc3ccc4c(c3)CC[C@H]3N(C)C(=O)CC[C@]43C)nc12    87
CN1C(=O)CC[C@]2(C)c3ccc(/C=C/c4ccc5ccccc5n4)cc3CC[C@@H]12    87
CN1C(=O)CC[C@]2(C)c3ccc(-c4ccc(NS(C)(=O)=O)cc4)cc3CC[C@@H]12    10
CN1C(=O)CC[C@]2(C)c3ccc(/C=C/c4cncc5ccccc45)cc3CC[C@@H]12    75
C[C@]12C=CC(=O)N[C@@H]1CCc1cc(-c3cc4ccccc4cn3)ccc12    22
CN1C(=O)CC[C@]2(C)c3ccc(/C=C/c4cnc5ccccc5c4)cc3CC[C@@H]12    75
C[C@]12CCC(=O)N[C@@H]1CCc1cc(Sc3ccccc3Cl)ccc12 (single isomer, unassigned)    49
C[C@]12CCC(=O)N[C@@H]1CCc1cc(-c3cnc4ccccc4c3)ccc12 (single isomer, unassigned)    11
CN1C(=O)CC[C@]2(C)c3ccc(-c4ccc5c(c4)CCC5O)cc3CC[C@@H]12 (single isomer, unassigned; (+))    54

---

Biological target: Type I 5α-reductase (Homo sapiens, UniProt P18405)
Construct: Scalp punch biopsies from graft recipient sites were obtained; from tissue; host or cells: human scalp skin (punch biopsies from hair transplant procedures); 100,000 x g pellet of the homogenate
Test: Human Type I steroid 5α-reductase homogenate assay (conversion of [3H]-testosterone to [3H]-DHT and other 5α-reduced metabolites)
Type: biochemical
Conditions: 0.3 µM concentration of compound, compared to control reaction mixtures
Entries and their percent inhibition of Type I 5AR values follow.
Experimental Endpoint: percent inhibition of Type I 5AR

CN1C(=O)CC[C@]2(C)c3ccc(-c4ccc(-c5ccc(NC(=O)C(C)(C)C)s5)cc4)cc3CC[C@@H]12 [Example 222]    86%
CN1C(=O)CC[C@]2(C)c3ccc(Sc4nc5c(ccc6ccccc65)s4)cc3CC[C@@H]12 [Example 163]    80%
Cc1cccc2sc(Sc3ccc4c(c3)CC[C@H]3N(C)C(=O)CC[C@]43C)nc12 [Example 159]    87, 87%
C[C@]12CCC(=O)N[C@@H]1CCc1cc(-c3cnc4ccccc4c3)ccc12 [Example 196]    11%
